Biological target: Dual specificity mitogen-activated protein kinase kinase 1 (Homo sapiens)
Sequence (Q02750 whole entry): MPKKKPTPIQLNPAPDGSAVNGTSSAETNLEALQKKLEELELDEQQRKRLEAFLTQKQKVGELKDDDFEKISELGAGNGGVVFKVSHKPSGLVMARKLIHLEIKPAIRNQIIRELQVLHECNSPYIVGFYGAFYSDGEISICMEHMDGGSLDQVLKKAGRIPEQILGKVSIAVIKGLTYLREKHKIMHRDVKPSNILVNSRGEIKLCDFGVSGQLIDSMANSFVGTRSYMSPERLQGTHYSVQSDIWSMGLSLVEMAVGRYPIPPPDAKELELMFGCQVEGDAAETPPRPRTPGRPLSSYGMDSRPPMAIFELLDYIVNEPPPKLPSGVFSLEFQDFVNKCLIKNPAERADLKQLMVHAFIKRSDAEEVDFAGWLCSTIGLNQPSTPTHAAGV
Assay: Inhibition of MEK1 by HTRF assay
IC50 under 10 µM gets 1.0, anything at or over 10 µM gets 0.0.

Observe how each entry below is paired with its result.
c1ccc(-c2ccc(Oc3cncc4sc(-c5nn[nH]n5)cc34)cc2)cc1 : 1.0
COc1cccc(-c2ccc(Oc3cncc4sc(-c5nnn[nH]5)cc34)cc2)c1 : 0.0
FC(F)(F)c1ccc(-c2ccc(Oc3cncc4sc(-c5nn[nH]n5)cc34)cc2)cc1 : 1.0
COc1ccc(-c2ccc(Oc3cncc4sc(-c5nn[nH]n5)cc34)cc2)cc1 : 0.0
COc1ccccc1-c1ccc(Oc2cncc3sc(-c4nnn[nH]4)cc23)cc1 : 0.0

Query :: Quick check: IC50 of `Clc1cccc(-c2ccc(Oc3cncc4sc(-c5nn[nH]n5)cc34)cc2)c1` under 10 µM?
Result :: 1.0

Query :: Quick check: IC50 of `Nc1ccc(-c2ccc(Oc3cncc4sc(-c5nn[nH]n5)cc34)cc2)cc1` under 10 µM?
Result :: 1.0

Query :: Quick check: IC50 of `CN(C)C(=O)c1ccc(-c2ccc(Oc3cncc4sc(-c5nn[nH]n5)cc34)cc2)cc1` under 10 µM?
Result :: 0.0

Query :: Quick check: IC50 of `OCc1ccc(-c2ccc(Oc3cncc4sc(-c5nnn[nH]5)cc34)cc2)cc1` under 10 µM?
Result :: 0.0

Query :: Quick check: IC50 of `Clc1ccc(-c2ccc(Oc3cncc4sc(-c5nn[nH]n5)cc34)cc2)cc1` under 10 µM?
Result :: 1.0
